Data credit: ChEMBL document CHEMBL2016576

- System: aldosterone synthase mRNA
- test-method-notes: Induction of aldosterone synthase mRNA level in human NCI-H295 cells by in vitro branched DNA method relative to control
- Assay type: cell-based
- condition-label: read-out: FC
endpoint-name: fold induction
I only need the number, thanks.

Exercise: Look up and report measured fold induction for this entry: CC[C@@H]1C[C@H](N(Cc2cc(C(F)(F)F)cc(C(F)(F)F)c2)c2nnn(C)n2)c2nc(C(F)(F)F)ccc2N1C(=O)OC(C)C
Solution: 10

---

- system-name: Cholesteryl ester transfer protein (Homo sapiens)
- Sequence (P11597 whole entry): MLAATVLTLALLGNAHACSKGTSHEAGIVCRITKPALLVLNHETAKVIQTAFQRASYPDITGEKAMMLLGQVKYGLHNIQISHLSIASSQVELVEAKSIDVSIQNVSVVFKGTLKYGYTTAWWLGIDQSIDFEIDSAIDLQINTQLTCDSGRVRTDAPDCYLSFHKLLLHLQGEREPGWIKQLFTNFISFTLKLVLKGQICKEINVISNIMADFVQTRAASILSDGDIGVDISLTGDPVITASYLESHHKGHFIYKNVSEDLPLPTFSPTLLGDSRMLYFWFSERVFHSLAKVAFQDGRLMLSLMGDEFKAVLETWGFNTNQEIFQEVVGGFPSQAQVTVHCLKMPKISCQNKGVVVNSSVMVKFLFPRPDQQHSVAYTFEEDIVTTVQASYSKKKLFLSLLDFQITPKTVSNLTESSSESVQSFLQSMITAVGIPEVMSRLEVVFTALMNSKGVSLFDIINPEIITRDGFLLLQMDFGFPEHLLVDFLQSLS
- test-method-notes: Inhibition of CETP in human plasma assessed as reduction in fluorescent intensity by fluorescence analysis
Note to self: IC50 under 200 nM means criterion met, ties and anything higher get criterion not met.

CC[C@@H]1C[C@H](N(Cc2cc(C(F)(F)F)cc(C(F)(F)F)c2)C(C)=O)c2nc(N(C)C)ccc2N1C(=O)OC(C)C (racemic); criterion not met
CC[C@@H]1C[C@H](N(Cc2cc(C(F)(F)F)cc(C(F)(F)F)c2)c2nnn(C)n2)c2nc(C(F)(F)F)ccc2N1C(=O)c1c(C)cnn1C; criterion met
CCCC(=O)N1c2ccc(C(F)(F)F)nc2[C@@H](N(Cc2cc(C(F)(F)F)cc(C(F)(F)F)c2)c2nnn(C)n2)C[C@H]1CC; criterion met

Next up:
Exercise: Does the reported IC50 of CC[C@@H]1C[C@H](N(Cc2cc(C(F)(F)F)cc(C(F)(F)F)c2)c2nnn(C)n2)c2nc(N)c(C)cc2N1C(=O)OC(C)C (racemic) stay below 200 nM?
Solution: criterion met
